Molecular target: recombinant human GITR (Cat No. 13643-H08H, Lot No. LC12JA2509, Sino Biological) (human) (UniProt Q9Y5U5)
Experiment: SPR Biacore 8K, single-cycle kinetics, IgG in supernatant captured on Protein A, GITR as analyte
Listed binders paired with reported Kd

{"binder": "anti-GITR 51B VH1/VL0 antibody (human IgG1, kappa) (antibody, V domains shown) VH: QVQLVQSGAELKKPGASVKLSCKTTGYRFTGYWIEWVRQPPGKGLEWIGEILPGSGATYYSENFKGKATITADTSTNTAYMEVSSLRSGDSAIYYCARKGGYYAMDYWGQGTSVTVSS VL: QIVLTQSPAIMSASLGERVTMTCTASSSVSSSYFHWYQQKPGSSPKLWIYSTSNLASGVPARFSGSGSGTSYSLTVSSLEAEDAATYYCHLYHRSPRTFGGGTTLDIKR", "Kd [nM]": 1.08}
{"binder": "anti-GITR 51B VH0/VL0 chimeric antibody (human IgG1, kappa) (antibody, V domains shown, Chimeric antibody; also called VH0/Vk0; 51B VH0/Vk0) VH: QVQLQQSGAELMKPGASVKLSCKTTGYRFTGYWIEWVKQRPGHGLEWIGEILPGSGATYYSENFKGKATFTADTSSNTAYMQVSSLTTGDSAIYYCARKGGYYAMDYWGQGTSVTVSS VL: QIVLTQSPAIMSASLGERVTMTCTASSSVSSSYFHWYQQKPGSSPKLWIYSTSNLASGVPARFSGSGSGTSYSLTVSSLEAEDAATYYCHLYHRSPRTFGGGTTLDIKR", "Kd [nM]": 0.566}
{"binder": "anti-GITR 51B VH1/VL1 humanized antibody (human IgG1, kappa) (antibody, V domains shown) VH: QVQLVQSGAELKKPGASVKLSCKTTGYRFTGYWIEWVRQPPGKGLEWIGEILPGSGATYYSENFKGKATITADTSTNTAYMEVSSLRSGDSAIYYCARKGGYYAMDYWGQGTSVTVSS VL: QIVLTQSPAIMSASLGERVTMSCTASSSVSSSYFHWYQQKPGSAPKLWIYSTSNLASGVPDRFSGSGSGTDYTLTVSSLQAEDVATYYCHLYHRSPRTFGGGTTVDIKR", "Kd [nM]": 1.32}
